Source listed as patent US20040152708A1.

experimental.protocol: Plasma protein binding (ultrafiltration)
Type: in vitro ADME
test.conditions: mouse or human plasma (species not given), 37° C.

| compound | percentage of compound protein bound [%] |
| --- | --- |
| C/C(=C\c1csc(C)n1)[C@@H]1C/C=C(/C(F)(F)F)C/C=C/[C@H](C)[C@H](O)[C@@H](C)C(=O)C(C)(C)[C@@H](O)CC(=O)O1 (relative stereo) [26-trifluoro 9,10-dehydroepothilone D, reference compound] | 96.5 |
| C/C1=C/C[C@@H](/C(C)=C/c2csc(CN)n2)OC(=O)C[C@H](O)C(C)(C)C(=O)[C@H](C)[C@@H](O)[C@@H](C)/C=C/C1 [21-NH2 9,10-dehydroepothilone D, 21-amino-9,10-dehydro-epothilone D] | 89.5 |
| C/C1=C/C[C@@H](/C(C)=C/c2csc(C)n2)OC(=O)C[C@H](O)C(C)(C)C(=O)[C@H](C)[C@@H](O)[C@@H](C)/C=C/C1 (relative stereo) [9,10-dehydroepothilone D, trans-9,10-dehydroepothilone D] | 96.6 |
| C/C1=C/C[C@@H](/C(C)=C/c2nc3ccccc3s2)OC(=O)C[C@H](O)C(C)(C)C(=O)[C@H](C)[C@@H](O)[C@@H](C)/C=C/C1 | 99.7 |
| C/C(=C\c1csc(CO)n1)[C@@H]1C/C=C(/C(F)(F)F)C/C=C/[C@H](C)[C@H](O)[C@@H](C)C(=O)C(C)(C)[C@@H](O)CC(=O)O1 | 92.8 |
| C/C1=C/C[C@@H](/C(C)=C/c2ccccn2)OC(=O)C[C@H](O)C(C)(C)C(=O)[C@H](C)[C@@H](O)[C@@H](C)/C=C/C1 | 89.4 |

* * *

measurement.target: CYP2C9 (Homo sapiens)
Construct: purchased BD GenTest, Woburn, Mass
Sequence (P11712 whole entry): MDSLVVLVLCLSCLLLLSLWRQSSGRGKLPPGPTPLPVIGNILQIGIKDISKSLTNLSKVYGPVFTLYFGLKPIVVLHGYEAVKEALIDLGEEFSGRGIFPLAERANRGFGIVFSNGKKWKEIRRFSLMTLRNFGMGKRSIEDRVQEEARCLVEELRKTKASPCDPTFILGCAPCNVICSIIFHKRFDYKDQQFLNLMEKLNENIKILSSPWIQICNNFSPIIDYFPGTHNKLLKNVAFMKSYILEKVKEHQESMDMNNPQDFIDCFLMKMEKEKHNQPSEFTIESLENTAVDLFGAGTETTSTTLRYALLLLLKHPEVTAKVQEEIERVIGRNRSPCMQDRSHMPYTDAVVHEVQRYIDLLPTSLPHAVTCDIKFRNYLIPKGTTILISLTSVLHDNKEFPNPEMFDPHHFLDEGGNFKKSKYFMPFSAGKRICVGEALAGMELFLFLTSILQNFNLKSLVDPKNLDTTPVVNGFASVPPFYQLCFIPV
experimental.protocol: Cytochrome P450 inhibition, CYP2C9
Format: in vitro ADME
test.conditions: human
Recorded IC50 values for a group of compounds are listed next.

| compound | measurement.target | IC50 / µM |
| --- | --- | --- |
| C/C1=C/C[C@@H](/C(C)=C/c2csc(CN)n2)OC(=O)C[C@H](O)C(C)(C)C(=O)[C@H](C)[C@@H](O)[C@@H](C)/C=C/C1 [21-NH2 9,10-dehydroepothilone D, 21-amino-9,10-dehydro-epothilone D] | CYP2C9 (Homo sapiens) | 0.83 |
| C/C1=C/C[C@@H](/C(C)=C/c2nc3ccccc3s2)OC(=O)C[C@H](O)C(C)(C)C(=O)[C@H](C)[C@@H](O)[C@@H](C)/C=C/C1 [KOSN 1635] | CYP2C9 (Homo sapiens) | 4.1 |
| C/C(=C\c1csc(CO)n1)[C@@H]1C/C=C(/C(F)(F)F)C/C=C/[C@H](C)[C@H](O)[C@@H](C)C(=O)C(C)(C)[C@@H](O)CC(=O)O1 | CYP2C9 (Homo sapiens) | 17.3 |

* * *

experimental.protocol: Half-life in mouse plasma
test.conditions: fresh mouse plasma
Description: […] At Time Zero, aliquotted 75 μl from each sample and added 150 μl of acetonitrile. Centrifuged the white precipitate at 13500 rpm for 3 minutes. Transferred all the clear supernatant into another microcentrifuge tube and repeated the centrifuging step (13500 rpm/3 min). […] The samples were analyzed by HPLC to measure remaining compound at each time point by comparison with authentic standards.
Quick rule: half-life of at least 60 min means Yes, below that means No.

| molecule | label.value |
| --- | --- |
| C/C1=C/C[C@@H](/C(C)=C/c2csc(C)n2)OC(=O)C[C@H](O)C(C)(C)C(=O)[C@H](C)[C@@H](O)[C@@H](C)CCC1 [Epothilone D, Desoxyepothilone B, reference compound] | No |
| C/C(=C\c1csc(CO)n1)[C@@H]1C/C=C(/C(F)(F)F)C/C=C/[C@H](C)[C@H](O)[C@@H](C)C(=O)C(C)(C)[C@@H](O)CC(=O)O1 | Yes |
| C/C(=C\c1csc(C)n1)[C@@H]1C/C=C(/C(F)(F)F)C/C=C/[C@H](C)[C@H](O)[C@@H](C)C(=O)C(C)(C)[C@@H](O)CC(=O)O1 (relative stereo) [26-trifluoro 9,10-dehydroepothilone D, reference compound] | Yes |
| C/C1=C/C[C@@H](/C(C)=C/c2nc3ccccc3s2)OC(=O)C[C@H](O)C(C)(C)C(=O)[C@H](C)[C@@H](O)[C@@H](C)/C=C/C1 | No |
| C/C1=C/C[C@@H](/C(C)=C/c2ccccn2)OC(=O)C[C@H](O)C(C)(C)C(=O)[C@H](C)[C@@H](O)[C@@H](C)/C=C/C1 | No |
| C/C1=C/C[C@@H](/C(C)=C/c2csc(CO)n2)OC(=O)C[C@H](O)C(C)(C)C(=O)[C@H](C)[C@@H](O)[C@@H](C)/C=C/C1 [21-OH 9,10-dehydroepothilone D, 21-hydroxy-9,10-dehydro-epothilone D] | Yes |
